The origin of these recorded values is ChEMBL document CHEMBL4330067.

Listing of entries alongside the reported inhibition.
test system: Enterococcus faecalis; experiment: Inhibition of Enterococcus faecalis methionine aminopeptidase 1A at 100 uM using Met-AMC as substrate relative to control

{"columns": ["structureString", "studyTarget", "unitSpec", "inhibition"],
 "data": [
  ["CCOC(=O)c1cc(-c2ccc(Cl)cc2)no1", "Enterococcus faecalis", "%", 19.4],
  ["Cc1c(-c2cc(C(=O)N[C@H](C)C(=O)O)on2)oc2ccc(Br)cc12", "Enterococcus faecalis", "%", 34.6],
  ["COC(=O)[C@@H](C)NC(=O)c1cc(-c2ccc(Cl)cc2)no1", "Enterococcus faecalis", "%", 15.4],
  ["Cc1c(C(=O)/C=C(\\O)C(=O)O)oc2ccc(Br)cc12", "Enterococcus faecalis", "%", 91.9],
  ["Cc1c(C(=O)/C=C(\\O)C(=O)N[C@H](C)C(=O)O)oc2ccc(Br)cc12", "Enterococcus faecalis", "%", 92.7],
  ["COC(=O)[C@@H](C)NC(=O)/C(O)=C/C(=O)c1ccccc1C", "Enterococcus faecalis", "%", 59.6],
  ["Cc1ccccc1-c1cc(C(=O)N[C@H](C)C(=O)O)on1", "Enterococcus faecalis", "%", 43.4],
  ["CCOC(=O)/C(O)=C/C(=O)c1oc2ccc(Br)cc2c1C", "Enterococcus faecalis", "%", 93.3],
  ["Cc1c(-c2cc(C(=O)O)on2)oc2ccc(Br)cc12", "Enterococcus faecalis", "%", 40.3],
  ["CCOC(=O)/C(O)=C/C(=O)c1ccc(Cl)cc1", "Enterococcus faecalis", "%", 27.3],
  ["COC(=O)[C@@H](C)NC(=O)/C(O)=C/C(=O)c1oc2ccc(Br)cc2c1C", "Enterococcus faecalis", "%", 93.9],
  ["Cc1ccccc1C(=O)/C=C(\\O)C(=O)N[C@H](C)C(=O)O", "Enterococcus faecalis", "%", 63.2],
  ["CCOC(=O)/C(O)=C/C(=O)c1ccccc1C", "Enterococcus faecalis", "%", 43.5],
  ["Cc1ccccc1-c1cc(C(=O)O)on1", "Enterococcus faecalis", "%", 32],
  ["COC(=O)[C@@H](C)NC(=O)c1cc(-c2ccccc2C)no1", "Enterococcus faecalis", "%", 24.9],
  ["CCOC(=O)c1cc(-c2ccccc2C)no1", "Enterococcus faecalis", "%", 27.6],
  ["Cc1ccccc1C(=O)/C=C(\\O)C(=O)O", "Enterococcus faecalis", "%", 54.7],
  ["C[C@@H](NC(=O)c1cc(-c2ccc(Cl)cc2)no1)C(=O)O", "Enterococcus faecalis", "%", 23.6],
  ["COC(=O)[C@@H](C)NC(=O)c1cc(-c2oc3ccc(Br)cc3c2C)no1", "Enterococcus faecalis", "%", 18.8],
  ["CCOC(=O)c1cc(-c2oc3ccc(Br)cc3c2C)no1", "Enterococcus faecalis", "%", 21.1],
  ["O=C(O)c1cc(-c2ccc(Cl)cc2)no1", "Enterococcus faecalis", "%", 20]
]}

---

system: Mycobacterium tuberculosis; experiment: Inhibition of Mycobacterium tuberculosis methionine aminopeptidase 1C at 100 uM using Met-AMC as substrate relative to control

{"columns": ["structureString", "studyTarget", "inhibition"],
 "data": [
  ["COC(=O)[C@@H](C)NC(=O)c1cc(-c2ccccc2C)no1", "Mycobacterium tuberculosis", "45.9%"],
  ["COC(=O)[C@@H](C)NC(=O)/C(O)=C/C(=O)c1oc2ccc(Br)cc2c1C", "Mycobacterium tuberculosis", "99.6%"],
  ["CCOC(=O)/C(O)=C/C(=O)c1oc2ccc(Br)cc2c1C", "Mycobacterium tuberculosis", "91.6%"],
  ["Cc1ccccc1C(=O)/C=C(\\O)C(=O)O", "Mycobacterium tuberculosis", "65.7%"],
  ["Cc1c(C(=O)/C=C(\\O)C(=O)N[C@H](C)C(=O)O)oc2ccc(Br)cc12", "Mycobacterium tuberculosis", "87.7%"],
  ["COC(=O)[C@@H](C)NC(=O)c1cc(-c2ccc(Cl)cc2)no1", "Mycobacterium tuberculosis", "53.2%"],
  ["O=C(O)c1cc(-c2ccc(Cl)cc2)no1", "Mycobacterium tuberculosis", "58.2%"],
  ["Cc1ccccc1-c1cc(C(=O)O)on1", "Mycobacterium tuberculosis", "43.7%"],
  ["Cc1c(-c2cc(C(=O)O)on2)oc2ccc(Br)cc12", "Mycobacterium tuberculosis", "39.1%"],
  ["C[C@@H](NC(=O)c1cc(-c2ccc(Cl)cc2)no1)C(=O)O", "Mycobacterium tuberculosis", "51.7%"],
  ["Cc1ccccc1C(=O)/C=C(\\O)C(=O)N[C@H](C)C(=O)O", "Mycobacterium tuberculosis", "47.7%"],
  ["CCOC(=O)/C(O)=C/C(=O)c1ccc(Cl)cc1", "Mycobacterium tuberculosis", "70.5%"],
  ["CCOC(=O)c1cc(-c2ccccc2C)no1", "Mycobacterium tuberculosis", "47.1%"],
  ["Cc1ccccc1-c1cc(C(=O)N[C@H](C)C(=O)O)on1", "Mycobacterium tuberculosis", "40.9%"],
  ["CCOC(=O)c1cc(-c2oc3ccc(Br)cc3c2C)no1", "Mycobacterium tuberculosis", "41.3%"],
  ["CCOC(=O)c1cc(-c2ccc(Cl)cc2)no1", "Mycobacterium tuberculosis", "47.4%"],
  ["COC(=O)[C@@H](C)NC(=O)/C(O)=C/C(=O)c1ccccc1C", "Mycobacterium tuberculosis", "67.1%"],
  ["Cc1c(C(=O)/C=C(\\O)C(=O)O)oc2ccc(Br)cc12", "Mycobacterium tuberculosis", "93.5%"],
  ["CCOC(=O)/C(O)=C/C(=O)c1ccccc1C", "Mycobacterium tuberculosis", "55.8%"],
  ["Cc1c(-c2cc(C(=O)N[C@H](C)C(=O)O)on2)oc2ccc(Br)cc12", "Mycobacterium tuberculosis", "33.2%"]
]}
